# Kd annotations
Target: biotin-labeled SARS-COV-2 RBD domain (SARS-CoV-2, UniProt P0DTC2 319-541)
Experiment: SPR, Biacore T200, biotin-RBD on SA chip, antibody as analyte

Here are 2 binders together with their reported answers.
ABU-340 (antibody, V domains shown) VH: EVQLVESGGGLVQPGGSLRLSCAASGFTVSSNYMNWVRQAPGKGLEWVSVIYSGGSTYYADSVKGRFTLSRDNSKNTLYLQMNSLRAEDTAVYYCARGQYDILTGYQYGAFDIWGQGTMVTVSS VL: QSALTQPASVSGSPGQSITISCTGTSSDVGTYNLVSWYQQHPGKAPKLMIYEVSKRPSGVSNRFSGSKSGNTASLTISGLQAEDEADYYCCTYAGSSTWVFGGGTKLTVL : < 10 nM
ABU-320 (antibody, V domains shown) VH: QVQLVESGGGVVQPGRSLRLSCAASGFTFSSYATHWVRQAPGKGLEWVAVISYDGSNKYHADSVKGRFTISRDNSKNTLYLQMNSLRAEDTAVYYCAREWSRGAVAGTGYFDYWGQGTLVTVSS VL: SYVLTQPPSVSVAPGKTARITCGGNNIGSKSVHWYQQKPGQAPVLVVYDDSDRPSGIPERFSGSNSGNTATLTISRVEAGDEADYYCQVWDSSGDHWVFGGGTKLTVL : < 10 nM

# next binder below
stdin: Which Kd value is on record for ABU-373 (antibody, V domains shown) VH: EVQLVESGGGLIQPGGSLRLSCAASGITVSSNYMSWVRQAPGKGLEWVSVIYSGGSTYYADSVKGRFTISRDNSKNTLYLQMNSLRAEDTAVYYCARGGAYYYGMDVWGQGTTVTVSS VL: DIQLTQSPSFLSASVGDRVTITCRASQGISSYLAWYQQKPGKAPKLLIYAASTLQSGVPSRFSGSGSGTEFTLTISSLQPEDFATYYCQQLNTYPPFGFGPGTKVDIK ?
stdout: < 10 nM
